I'd be grateful if you could share measured melting point for these entries.

Input: Supply reported melting point belonging to this compound: CCc1cn(C2CC(O)C(CNC(=O)CS(=O)(=O)c3ccccc3)O2)c(=O)[nH]c1=O (stereo unspecified)
Output: 218 to 219 °C

Input: Read the entry "CCCCCn1ncc(C#N)c1N" and write its reported melting point.
Output: 143 to 144 °C

Input: Fill in reported melting point for this entry: CCc1ccc(C=C2C(=O)c3cc(O)ccc3OC2c2ccc(CC)cc2)cc1 (stereo unspecified)
Output: 178 to 180 °C

Input: Check the records and state melting point for COC(=O)C(C)(Oc1ccc(-c2ccc(Cl)cc2)cc1)C(F)(F)F (stereo unspecified)
Output: 87 to 88 °C

Input: Give me measured melting point, please, for this compound: "COC(=O)c1ccc(N(C(=O)c2ccccc2-c2ccccc2)C(=O)c2ccccc2-c2ccccc2)nc1"
Output: 180 to 188 °C

Input: Give reported melting point value for CC(C)Nc1cccc(C2CN3CCSC3=N2)c1 (stereo unspecified)
Output: 47 to 51 °C

Input: // fetch melting point given entry CC1CCC(N(CC2CCC(CN(C(=O)Nc3ccc(N(C)C)cc3)C3CCC(C)CC3)CC2)C(=O)Nc2ccc(N(C)C)cc2)CC1 (stereo unspecified)
Output: 150 to 153 °C

Input: Annotate the compound CCCCc1ccc(C(=O)NC(C)(C(N)=O)C(C)C)nc1 (stereo unspecified) with its measured melting point.
Output: 83 to 86 °C

Input: Provide measured melting point value, entry: COC1CC(OCc2ccccc2)C(OS(=O)(=O)c2ccc(C)cc2)C(CO)O1 (stereo unspecified)
Output: 100 to 101 °C

Input: Let me know recorded melting point for CCNCCCCCC(C)O (stereo unspecified) , thanks.
Output: 37 to 38 °C

Input: Fill in melting point for record "O=C(O)CCc1cccc(-c2nc(=O)c3ccccc3s2)n1"
Output: 243 to 244 °C

Input: Output melting point of CCC(C)C[C@@H]1O[C@H](CC(=O)Nc2ccc(OC(F)(F)C(=O)O)cc2)C(=O)N(CC(C)(C)CO)c2ccc(Cl)cc21 (stereo partly specified)
Output: 149 to 150 °C

Input: Provide one value: measured melting point of "CCCN(O)CCc1ccc2c(c1)C(=O)c1ccccc1CO2"
Output: 121 to 124 °C

Input: Please give measured melting point of the following entry: "O=C1C(c2ccccc2)=C(c2ccccc2)C(=O)N1Cc1ccc(F)cc1"
Output: 124 to 125 °C

Input: Read off the recorded melting point for "CC(C)(C)c1cc(OCc2ccc(C#N)cc2)cc(C(C)(C)C)c1O"
Output: 166 to 169 °C

Input: Fill in reported melting point for this entry: COc1cccc(C2CCCN(C(=O)N(C)O)C2)c1 (stereo unspecified)
Output: 96 to 98 °C

* * *

Measurement Type: melting point

Input: Specify reported melting point for the compound shown: Cc1c(C)c(N)c2c(c1C)C(c1ccc(C(C)C)cc1)CO2 (stereo not given)
Output: 122 to 123 °C

Input: Specify measured melting point for Cc1nn(C)c(NC=O)c1C1=CCC(C)CC1 (stereo not given) .
Output: 97 to 99 °C

Input: Recall and state the measured melting point for "CN(C(=O)c1cccc(C(F)(F)F)c1)c1ccccc1CCCCC(=O)O" .
Output: 81 to 83 °C

Input: Write down melting point measured for item "CN1CCN(c2ccc(-c3[nH]nc4c3C(=O)c3c(NC(=O)NNC(=O)c5cccnc5)cccc3-4)cc2)CC1"
Output: 238 °C

Input: Give reported melting point value for CCOc1ccc2[nH]cc(CC(C)(C(=O)OC)[N+](=O)[O-])c2c1 (racemic)
Output: 80 to 82 °C

Input: Dear colleague, please send me the reported melting point for "CS(=O)(=O)Nc1c([N+](=O)[O-])cnn1-c1c(F)c(F)c(C(F)(F)F)c(F)c1F" when you can.
Output: 163 to 168 °C

Input: For the compound Cc1ccccc1NC(=NC#N)NC(NC(=O)CCCc1ccccc1)C(C)(C)C (stereo not given) , give its reported melting point.
Output: 153 to 154 °C

Input: Identify the reported melting point for the following entry. "Cc1nc(NC(=O)c2cnn3c(C(F)F)cc(-c4ccc(C(F)(F)F)cc4)nc23)sc1S(=O)(=O)NC(C)(C)CO"
Output: 268 °C

Input: Using known records, supply melting point for "NCCC(=O)NCCCO"
Output: 140 to 142 °C

Input: Please list melting point recorded for the compound "CCCCCCCCn1nnc(NC(=O)Nc2c(C(C)C)cccc2C(C)C)n1"
Output: 139 to 140 °C

Input: Tell us which melting point value is on record for "COc1ccc(-n2c(C)cc(=O)[nH]c2=S)cc1"
Output: 248 to 249 °C

Input: Query melting point for COC(=O)C1=C(CO)NC(C)=C(C(=O)OC(C)C)C1c1ccccc1C#N (stereo not given)
Output: 134 to 137 °C

Input: Return reported melting point. Input compound: "Cc1ccc(S(=O)(=O)OCCCc2c[nH]c3ccc(F)cc23)cc1"
Output: 74 °C

Input: State its melting point for this compound: CCOC(=O)C=C1NC(C)=C(C(=O)OCC)C(c2ccccc2C(F)(F)F)C1C(=O)OCC (stereo not given)
Output: 98 to 99 °C

Input: Let me know recorded melting point for "COc1ccc(C(=O)Nc2ccc(-c3ncc(-c4ccc(NC(=O)C5CCCCCC5)cc4)[nH]3)cc2)cc1" , thanks.
Output: 311 to 313 °C

Input: Tell me melting point reported for "CCOC(=O)CN(CC=CC(=O)Nc1cc2c(Nc3ccc(F)c(Cl)c3)ncnc2cc1OCC1CC1)CCOC(C)=O"
Output: 90 to 92 °C

Input: Retrieve melting point measured for O=C1N(CCCC2CC2)c2ccccc2C12COc1cc3c(cc12)OCO3 (stereo not given) and print it.
Output: 111 to 113 °C

Input: For the compound "CCCc1nc2ccccc2c(=O)n1Cc1ccc(-c2ccccc2-c2nnn[nH]2)cc1" , give its reported melting point.
Output: 171 to 172 °C

Input: Supply melting point value. Item: Cc1ccc(C)c(NC(=S)N2CCC(c3nc(C4=NOC(c5ccccc5)C4)cs3)CC2)c1 (stereo not given)
Output: 120 to 123 °C

Input: Look up melting point of "CN(C)CCOc1ccc(N(C(=O)c2ccc(F)cc2)c2ccccc2)cc1" and report it.
Output: 88.5 to 90 °C

Input: Return melting point for the following compound: "CCOC(=O)C(C)(C)Oc1ccc(-c2ccc(CCNC(=O)c3cccc(OC)c3OC)cc2)cc1"
Output: < 20 °C

Input: For the compound O=c1oc2ccccc2c(O)c1[C@@H]1C[C@@H](c2ccc(OCc3ccc(C(F)(F)F)cc3)cc2)Cc2ccccc21 (relative stereo) , give its measured melting point value.
Output: 153 to 155 °C

Input: Supply recorded melting point for "O=C(Nc1cn[nH]c1-c1ccc(F)cc1)c1c(F)cccc1F" here.
Output: 112 °C

Input: Kindly indicate its recorded melting point. Item: "OCCOc1nc(N2CCCCC2)c2nc(OCCO)nc(N3CCCCC3)c2n1"
Output: 148 to 150 °C

Input: In one line, give reported melting point of the entry "N#Cc1cccnc1N1CCN(CC(=O)Nc2cccc(C(F)(F)F)c2)CC1" .
Output: 157 to 158 °C

Input: Give the value of melting point reported for the following: CC1(O)CC(=O)OC(CCc2ccc(OCc3ccccc3)cc2)C1 (stereo not given)
Output: 82 to 85 °C

Input: Provide measured melting point value, entry: "CON1C=C2N=NC3=C(N(CC(C)C)CC(C)=C3)N2C1"
Output: 144 to 145 °C

Input: Fill in reported melting point for this entry: S=C(N1CCOCC1)C1(c2ccccn2)CCCS1 (stereo not given)
Output: 139 °C

Input: Supply melting point value. Item: "S=c1[nH]ccn1CCc1cccs1"
Output: 131 to 134 °C

Input: Note down melting point recorded for "O=C(O)c1ccc(S(=O)(=O)CCCl)cc1"
Output: 142 to 144 °C

Input: Annotate the compound "COc1ccc2c(c1)c(CC(=O)N(O)C1CCCCC1)c(C)n2C(=O)c1ccc(Cl)cc1" with its measured melting point.
Output: 208 to 210 °C

Input: Give the reported melting point for this compound. "CC1(C)CC(=O)c2ccc(OCCn3ccnc3)cc2O1"
Output: 84 to 86 °C

Input: Could you please provide reported melting point for "CN(CCCc1cc(F)c2ncc(C(=O)NCc3ccc(Cl)cc3)c(O)c2c1)Cc1ccccc1" ? Thanks!
Output: 161 to 162 °C

Input: Give recorded melting point. "N#Cc1cccnc1N1CCN(CNC(=O)c2ccccc2Cl)CC1"
Output: 137 to 139 °C

Input: Give reported melting point value for "CC(=O)Nc1c(-c2ccccc2)nn2ccccc12"
Output: 188 to 189 °C

* * *

For each entry below, report its melting point value.

Input: Supply recorded melting point for "CCCCc1nc2c(N)nc3ccc(OCc4ccccc4)cc3c2n1C" here.
Output: 198 to 199 °C

Input: Using the record for "COc1cc2oc(=O)c3c(c2cc1N)CCN(CC(C)=O)C3" , state its measured melting point.
Output: 178 to 180 °C

Input: Please give the documented melting point of COc1cc(N2C(=O)N(C)CC2O)c(F)cc1Cl (stereo unspecified)
Output: 138 to 140 °C

Input: Determine from records and report melting point for "COc1c(OCc2ccc3ccccc3c2)cccc1C(=O)c1nccs1"
Output: 100 °C

Input: Tell us which melting point value is on record for "CN(c1ccc(Cl)cc1)S(=O)(=O)c1c[nH]cn1"
Output: 217 to 219 °C

Input: Report measured melting point; entry is "O=C1COc2cc3[nH]c(C(=O)N4CCC(Cc5ccc(F)cc5)CC4)cc3cc2N1"
Output: 219 to 226 °C
